Kindly supply the reported pIC50 values for the records listed here.
Tgt: recombinant human 11 β-HSD1 (Homo sapiens, UniProt P28845)
Sequence (P28845 whole entry): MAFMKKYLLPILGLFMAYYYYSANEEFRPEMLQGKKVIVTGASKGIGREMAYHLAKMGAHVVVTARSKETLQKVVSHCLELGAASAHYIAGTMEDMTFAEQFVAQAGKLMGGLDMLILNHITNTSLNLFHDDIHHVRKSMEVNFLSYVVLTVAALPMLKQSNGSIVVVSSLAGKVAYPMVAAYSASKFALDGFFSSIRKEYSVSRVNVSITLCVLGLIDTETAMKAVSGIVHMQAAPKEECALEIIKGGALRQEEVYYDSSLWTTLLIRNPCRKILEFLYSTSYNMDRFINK
Procedure details: 11 β-HSD1 SPA Assay (Scintillation Proximity Assay)
pIC50: −log10 of the molar value.

// batch mode: one pIC50 value per listed entry
1. O=C(Nc1ccc(N2[C@@H]3CC[C@H]2C[C@@H](NC(=O)C2(c4ccc(Cl)cc4)CC2)C3)nc1)C1CC1
2. CC(C)(C(=O)N[C@H]1C[C@H]2CC[C@@H](C1)N2c1ccc(S(C)(=O)=O)cn1)S(=O)(=O)c1ccc(Cl)cc1Cl
3. CC(C)(Oc1ccc(Cl)cc1N1CCOCC1)C(=O)N[C@H]1C[C@H]2CC[C@@H](C1)N2c1ccc(C(=O)NCC(F)(F)F)cn1
4. CC(C)(Oc1cc(C(C)(C)O)c(Cl)cc1Cl)C(=O)N[C@H]1C[C@H]2CC[C@@H](C1)N2c1ccc(C(N)=O)cn1
5. CC(C)(Oc1ncc(C(F)(F)F)cc1Cl)C(=O)N[C@H]1C[C@H]2CC[C@@H](C1)N2c1ccc(S(C)(=O)=O)cc1
6. CC(C)(Oc1ncc(C(F)(F)F)cc1Cl)C(=O)N[C@H]1C[C@H]2CC[C@@H](C1)N2c1ccc(S(N)(=O)=O)cn1

## Output
1: > 6.70; 2: > 5.70; 3: > 6.70; 4: > 6.70; 5: > 5.70; 6: > 5.70

// batch mode: one pIC50 value per listed entry
1. CC(C)(Oc1cc(C(C)(C)O)c(Cl)cc1Cl)C(=O)N[C@H]1C[C@H]2CC[C@@H](C1)N2c1ccc(C(=O)O)cn1
2. CC(C)(Oc1ccc(Cl)cc1OC(F)(F)F)C(=O)NC1CC2CCC(C1)N2c1ccc(C(=O)NC2CC2(F)F)cn1 (stereo not shown)
3. CC(C)NC(=O)c1ccc(N2[C@@H]3CC[C@H]2C[C@@H](NC(=O)C(C)(C)Oc2ccc(Cl)cc2)C3)nc1
4. C[C@H](NC(=O)c1ccc(N2C3CCC2CC(NC(=O)C(C)(C)Oc2ccc(Cl)cc2)C3)nc1)C(F)(F)F (stereo partly shown)
5. CC(C)(Oc1ccc(F)cc1C(F)(F)F)C(=O)N[C@H]1C[C@H]2CC[C@@H](C1)N2c1ccc(C(N)=O)cn1
6. CC(C)(Oc1cc(Cl)ccc1Cl)C(=O)N[C@H]1C[C@H]2CC[C@@H](C1)N2c1ccc(C(=O)NCC(F)(F)F)cn1
7. CC(Oc1ccc(Cl)cc1)C(=O)N[C@H]1C[C@H]2CC[C@@H](C1)N2c1ccc(C(=O)NC2CC2)cn1 (stereo partly shown)

## Output
["> 5.70", "> 6.70", "> 6.70", "> 5.70", "> 6.70", "> 6.70", "> 5.70"]
